# MIC per entry
# System: AECO001 (ATCC25922)
# assay_remarks: MIC broth microdilution, AECO001
# Format: cell-based, E. coli
# run_conditions: Escherichia coli, ATCC25922, read-out: MIC AECO001

Return MIC for the following compound: C[C@@H](N)[C@H](NC(=O)c1ccc(/C=C/C#Cc2ccccc2F)cc1)C(=O)NO [Example 114-3]
< 2 µg/mL

---
Return MIC for the following compound: C[C@@H](O)[C@H](NC(=O)c1ccc(C#C/C=C/c2ccc(CO)cc2)cc1)C(=O)NO [Example 101-1]
< 2 µg/mL

Return MIC for the following compound: C[C@@H](N)[C@H](NC(=O)c1ccc(C#Cc2ccc(CNCCF)cc2)cc1)C(=O)NO [Example 118-9]
< 2 µg/mL

Return MIC for the following compound: C[C@@H](O)[C@H](NC(=O)c1ccc(CCc2ccc(CN3CCOCC3)cc2)cc1)C(=O)NO [Example 137-8]
2 to 16 µg/mL

Return MIC for the following compound: CC(C)(N)[C@@H](NC(=O)c1ccc(C#Cc2ccc(CNC3CC3)cc2)cc1)C(=O)NO [Compound 121-2]
2 to 16 µg/mL

Return MIC for the following compound: CC(C)CC#CC#Cc1ccc(C(=O)N[C@H](C(=O)NO)C(C)(C)O)cc1 [Example 91-19]
< 2 µg/mL

Return MIC for the following compound: C[C@@H](N)[C@H](NC(=O)c1ccc(C#Cc2ccc(CNC3CCCC3)cc2)cc1)C(=O)NO [Example 118-6]
2 to 16 µg/mL

###

# MIC per entry
# Test system: AECO001 (ATCC25922)
# assay_remarks: MIC broth microdilution, AECO001
# Type: cell-based, E. coli
# run_conditions: Escherichia coli, ATCC25922, read-out: MIC AECO001

Solved entries (count: 3):
Return MIC for the following molecule: "C[C@@H](N)[C@H](NC(=O)c1ccc(C#CC#Cc2ccc(CNC3CC3)cc2)cc1)C(=O)NO"
< 2 µg/mL

Return MIC for the following molecule: "Cn1cnc(C#CC#Cc2ccc(C(=O)N[C@H](C(=O)NO)C(C)(C)N)cc2)c1"
2 to 16 µg/mL

Return MIC for the following molecule: "C[C@@H](O)[C@H](NC(=O)c1ccc(C#Cc2ccc(C(F)(F)F)nc2)cc1)C(=O)NO"
2 to 16 µg/mL

---
Return MIC for the following molecule: "C[C@@H](N)[C@H](NC(=O)c1ccc(/C=C/C#Cc2ccc(CN3CCOCC3)cc2)cc1)C(=O)NO"
< 2 µg/mL

Return MIC for the following molecule: "C[C@@H](N)[C@H](NC(=O)c1ccc(C#Cc2ccc(CNCC(F)(F)F)cc2)cc1)C(=O)NO"
< 2 µg/mL

Return MIC for the following molecule: O=C(NC(C(=O)NO)C(F)(F)F)c1ccc(/C=C/C#Cc2ccc(CN3CCOCC3)cc2)cc1 (stereo not drawn)
< 2 µg/mL

Return MIC for the following molecule: "CCOCc1ccc(C#C/C=C/c2ccc(C(=O)N[C@H](C(=O)NO)[C@@H](C)N)cc2)cc1"
< 2 µg/mL

Return MIC for the following molecule: "C[C@@H](N)[C@H](NC(=O)c1ccc(C#CC2CC2)cc1)C(=O)NO"
16 to 64 µg/mL

Return MIC for the following molecule: "CC(C)(O)[C@H](NC(=O)c1ccc(C#C/C=C/c2cccnc2)cc1)C(=O)NO"
< 2 µg/mL

Return MIC for the following molecule: "CC(C)(O)[C@H](NC(=O)c1ccc(C#Cc2ccncc2)cc1)C(=O)NO"
2 to 16 µg/mL

Return MIC for the following molecule: "O=C(N[C@H](C(=O)NO)c1cccs1)c1ccc(C#Cc2ccc(CN3CCOCC3)cc2)cc1"
< 2 µg/mL

Return MIC for the following molecule: "C[C@@H](O)[C@H](NC(=O)c1ccc(/C=C/C#Cc2ccc(CO)cc2)cc1)C(=O)NO"
< 2 µg/mL

Return MIC for the following molecule: C[C@@H](N)[C@H](NC(=O)c1ccc(C#CC(O)c2ccc(CN3CCOCC3)cc2)cc1)C(=O)NO (stereo partly drawn)
16 to 64 µg/mL

Return MIC for the following molecule: "C[C@@H](O)[C@H](NC(=O)c1ccc(N2CCC(c3ccc(CN4CCOCC4)cc3)CC2)cc1)C(=O)NO"
16 to 64 µg/mL

Return MIC for the following molecule: "C[C@@H](N)[C@H](NC(=O)c1ccc(C#CC#CCC2CCCC2)cc1)C(=O)NO"
16 to 64 µg/mL
